- Tested on: RAW264.7
- METHOD DESCRIPTION: Cytotoxicity against mouse RAW264.7 cells by MTT assay
- Type: cell-based
PROPERTY NAME: Activity

Consider the reported Activity for these compounds:
| COMPOUND SMILES | MEASURED ON | RECORDED MEASUREMENT |
| --- | --- | --- |
| CC(C)=CCOc1ccc(/C=C/C(=O)O)cc1 | RAW264.7 | Non-toxic |
| CC(C)=CCC/C(C)=C/COc1ccc(CCC(=O)O)cc1 | RAW264.7 | Non-toxic |
| COC(=O)[C@H](CCCNC(=N)N[N+](=O)[O-])NC(=O)/C=C/c1ccc(OCC=C(C)C)c(OC)c1 | RAW264.7 | Non-toxic |
| COc1cc(C(=O)O)ccc1OC/C=C(\C)CCC=C(C)C | RAW264.7 | Non-toxic |
| COC(=O)[C@H](CCCNC(=N)N[N+](=O)[O-])NC(=O)c1ccc(OC/C=C(\C)CCC=C(C)C)cc1 | RAW264.7 | Non-toxic |
| COc1cc(C(=O)O)ccc1OCC=C(C)C | RAW264.7 | Non-toxic |

Exam item: Which Activity value belongs to CC(C)=CCOc1ccc(C(=O)O)cc1 ?
Marked response: Non-toxic

Exam item: Which Activity value belongs to CC(C)=CCOc1ccc(CCC(=O)O)cc1 ?
Marked response: Non-toxic

Exam item: Which Activity value belongs to COC(=O)[C@H](CCCNC(=N)N[N+](=O)[O-])NC(=O)c1ccc(OC/C=C(\C)CCC=C(C)C)c(OC)c1 ?
Marked response: Non-toxic

Exam item: Which Activity value belongs to COc1cc(/C=C/C(=O)O)ccc1OCC=C(C)C ?
Marked response: Non-toxic

Exam item: Which Activity value belongs to COC(=O)[C@H](CCCNC(=N)N[N+](=O)[O-])NC(=O)/C=C/c1ccc(OC/C=C(\C)CCC=C(C)C)c(OC)c1 ?
Marked response: Non-toxic

Exam item: Which Activity value belongs to COC(=O)[C@H](CCCNC(=N)N[N+](=O)[O-])NC(=O)CCc1ccc(OC/C=C(\C)CCC=C(C)C)cc1 ?
Marked response: Non-toxic

Exam item: Which Activity value belongs to COC(=O)[C@H](CCCNC(=N)N[N+](=O)[O-])NC(=O)/C=C/c1ccc(OCC=C(C)C)cc1 ?
Marked response: Non-toxic

Exam item: Which Activity value belongs to COC(=O)[C@H](CCCNC(=N)N[N+](=O)[O-])NC(=O)/C=C/c1ccc(OC/C=C(\C)CCC=C(C)C)cc1 ?
Marked response: Non-toxic

Exam item: Which Activity value belongs to CC(C)=CCC/C(C)=C/COc1ccc(/C=C/C(=O)O)cc1 ?
Marked response: Non-toxic

Exam item: Which Activity value belongs to COC(=O)[C@H](CCCNC(=N)N[N+](=O)[O-])NC(=O)CCc1ccc(OCC=C(C)C)cc1 ?
Marked response: Non-toxic

Exam item: Which Activity value belongs to COC(=O)[C@H](CCCNC(=N)N[N+](=O)[O-])NC(=O)c1ccc(OCC=C(C)C)c(OC)c1 ?
Marked response: Non-toxic

Exam item: Which Activity value belongs to COC(=O)[C@H](CCCNC(=N)N[N+](=O)[O-])NC(=O)c1ccc(OCC=C(C)C)cc1 ?
Marked response: Non-toxic

Exam item: Which Activity value belongs to CC(C)=CCC/C(C)=C/COc1ccc(C(=O)O)cc1 ?
Marked response: Non-toxic

Exam item: Which Activity value belongs to COc1cc(/C=C/C(=O)O)ccc1OC/C=C(\C)CCC=C(C)C ?
Marked response: Non-toxic
